pKd for assorted binders
biological target: feline FcRn complex (FcRn-α subunit and β-microglobulin) (feline); experiment: SPR (Biacore), FcRn on SA chip, pH 7.4
Convention used: pKd is expressed as -log10 of the molar concentration.

// below: answered binders
feline IgG1a mutant ID No. 296: S252Y, S428Y, Q311W, S434Y (antibody, part only; not given: Variable domains, not shown: another chain or arm of the molecule; small tags and cut ends) constant: ASTTAPSVFPLAPSCGTTSGATVALACLVLGYFPEPVTVSWNSGALTSGVHTFPAVLQASGLYSLSSMVTVPSSRWLSDTFTCNVAHPPSNTKVDKTVRKTDHPPGPKPCDCPKCPPPEMLGGPSIFIFPPKPKDTLYISRTPEVTCLVVDLGPDDSDVQITWFVDNTQVYTAKTSPREEQFNSTYRVVSVLPILHWDWLKGKEFKCKVNSKSLPSPIERTISKAKGQPHEPQVYVLPPAQEELSRNKVSVTCLIKSFHPPDIAVEWEITGQPEPENNYRTTPPQLDSDGTYFVYSKLSVDRSHWQRGNTYTCSVYHEALHYHHTQKSLTQSPGK : 5.83
feline IgG1a mutant ID No. 352: S252Y, S428M, S434F, Q311Y (antibody, part only; not given: Variable domains, not shown: another chain or arm of the molecule) constant: ASTTAPSVFPLAPSCGTTSGATVALACLVLGYFPEPVTVSWNSGALTSGVHTFPAVLQASGLYSLSSMVTVPSSRWLSDTFTCNVAHPPSNTKVDKTVRKTDHPPGPKPCDCPKCPPPEMLGGPSIFIFPPKPKDTLYISRTPEVTCLVVDLGPDDSDVQITWFVDNTQVYTAKTSPREEQFNSTYRVVSVLPILHYDWLKGKEFKCKVNSKSLPSPIERTISKAKGQPHEPQVYVLPPAQEELSRNKVSVTCLIKSFHPPDIAVEWEITGQPEPENNYRTTPPQLDSDGTYFVYSKLSVDRSHWQRGNTYTCSVMHEALHFHHTQKSLTQSPGK : 8.19
feline IgG1a mutant ID No. 267: S252F, S434F, Q311W (antibody, part only; not given: Variable domains, not shown: another chain or arm of the molecule) constant: ASTTAPSVFPLAPSCGTTSGATVALACLVLGYFPEPVTVSWNSGALTSGVHTFPAVLQASGLYSLSSMVTVPSSRWLSDTFTCNVAHPPSNTKVDKTVRKTDHPPGPKPCDCPKCPPPEMLGGPSIFIFPPKPKDTLFISRTPEVTCLVVDLGPDDSDVQITWFVDNTQVYTAKTSPREEQFNSTYRVVSVLPILHWDWLKGKEFKCKVNSKSLPSPIERTISKAKGQPHEPQVYVLPPAQEELSRNKVSVTCLIKSFHPPDIAVEWEITGQPEPENNYRTTPPQLDSDGTYFVYSKLSVDRSHWQRGNTYTCSVSHEALHFHHTQKSLTQSPGK : 5.39

// next entry
// query Endpoint output: pKd of feline IgG1a mutant ID No. 300: S428Y, Q311W, D312P, S434Y (antibody, part only; not given: Variable domains, not shown: another chain or arm of the molecule) constant: ASTTAPSVFPLAPSCGTTSGATVALACLVLGYFPEPVTVSWNSGALTSGVHTFPAVLQASGLYSLSSMVTVPSSRWLSDTFTCNVAHPPSNTKVDKTVRKTDHPPGPKPCDCPKCPPPEMLGGPSIFIFPPKPKDTLSISRTPEVTCLVVDLGPDDSDVQITWFVDNTQVYTAKTSPREEQFNSTYRVVSVLPILHWPWLKGKEFKCKVNSKSLPSPIERTISKAKGQPHEPQVYVLPPAQEELSRNKVSVTCLIKSFHPPDIAVEWEITGQPEPENNYRTTPPQLDSDGTYFVYSKLSVDRSHWQRGNTYTCSVYHEALHYHHTQKSLTQSPGK . Value?
// result 6.74
